- Test system: HS 578T breast
- assay_summary: NCI-60 one-dose screen, 48 h
- conditions: 10 µM unless noted
The panel holds about 83,000 compounds, 20% with a hit somewhere; the sample as a whole holds those more often. The source made the active and inactive calls. Rule for the calls: active = growth percent below 10; inactive = the rest.
I would appreciate it if you answered using one of these outcomes: active, inactive

Outcome logged for C=C1CC2(OC1=O)C(=O)N(CCCCCCCCCCCCN1C(=O)C3(CC(=C)C(=O)O3)c3ccccc31)c1ccccc12 (stereo unspecified) in this assay:
inactive

State the result this test recorded for NC1=CC(=O)C(=O)c2ccccc21 .
inactive

Tell me the recorded outcome of this test for C=C1CC[C@@H]2[C@](C)(COC(C)=O)[C@H](OC(C)=O)CC[C@@]2(C)[C@@H]1CC(Nc1ccc(S(=O)(=O)Nc2nc(C)cc(C)n2)cc1)C1=CCOC1=O (stereo partly specified) .
inactive

// outcome(item) with item = CCCCNc1ccc2c3c1cccc3c(=O)n1c3ccccc3nc21
inactive

Short answer needed: outcome of this test for Brc1cccc(-c2nc(-c3ccc4c(c3)OCCO4)co2)c1 ?
inactive

Called result for Cc1cc(-c2nc3ccccc3s2)ccc1NC(=O)COc1ccc(Cl)cc1
inactive

Can you look up the reported call for COc1cc(/C=N/N(C)C)ccc1O for me?
inactive

Fill in: this test's call for Oc1cccc(Nc2nccc(-c3ccc4ccccc4c3)n2)c1 is ___
inactive

Name the outcome recorded for CCCCCC(=O)N(CCCC)CCCC in the assay.
inactive

Called result for COc1ccc(-c2cc(=O)[nH]c3c(OC)c4ccccc4c(OC)c23)cc1
active

Record lookup: outcome of this test for C=CCSc1nnc(-c2ccc(C(C)(C)C)cc2)n1-c1cccc(C(F)(F)F)c1 ?
inactive

// param item: COc1ccc(CCN2CC=Cn3c2nc2ccccc2c3=O)cc1 ; yields the recorded call
inactive

Look up the recorded call for Nc1nc(SCc2ccccc2)c2ncn(C3CCCC3)c2n1 in this test.
inactive

Entry CCN(CC)CC(C)(C)C(=O)/C=C/c1ccccc1 : call = ?
inactive

What did the test return for COc1ccc(-n2cc(-c3ccccc3)c3c(SCC(=O)N/N=C/c4ccc([N+](=O)[O-])cc4)ncnc32)cc1 ?
inactive

How did this test come out for Oc1ccccc1/C=N/Nc1ccc2ccccc2n1 ?
inactive

Hey, what did the test say about CCCN(CCC)CN(CCC)CCC ?
inactive

State the result this test recorded for CN(C)c1ccc(/C=C(\C#N)c2nc3ccccc3s2)cc1 .
inactive

What was the test verdict on O=C(NCc1cccc(C(F)(F)F)c1)[C@H](CCC(=O)N1CCN(C2CCCCC2)CC1)N1C(=O)[C@@H](N2C(=O)OC[C@@H]2c2ccccc2)[C@H]1/C(Cl)=C/c1ccccc1 ?
inactive

Call for entry CN1CCN(Cc2ccc(NC(=O)c3cncc(C#Cc4cnc(N)c5cccnc45)c3)cc2C(F)(F)F)CC1 :
active

Hey, what did the test say about CSc1nc2sc3c(c2c(=O)n1-c1ccc(C(C)C)cc1)CCC(=O)C3 ?
active
